- target: T1, recombinant human GREM1 (hGREM1-His; C-terminal 10His tagged, R&D, #5190-GR) (human, UniProt O60565 25-184)
- T1 construct: range 25-184; also called recombinant human GREM1 with a C-terminal decahistidine tag
- T1 sequence: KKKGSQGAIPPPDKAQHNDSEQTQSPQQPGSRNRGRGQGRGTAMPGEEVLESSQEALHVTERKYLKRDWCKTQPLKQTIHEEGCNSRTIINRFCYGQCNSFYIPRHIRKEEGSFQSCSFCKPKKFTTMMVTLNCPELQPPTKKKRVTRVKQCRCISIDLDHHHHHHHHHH
- assay notes: BLI Octet, mAb captured, 100 nM GREM1;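 also: octet Red96 biolayer interferometry at 25 °C in pH 7.4 HEPES saline buffer, antibodies held on anti-human IgG Fc capture biosensors, then exposed to GREM1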
reported metric: Binding Signal with 300 sec Association (nm)
Respond numerically; units are nm and should not be typed.

Examples from the recorded data:
binder="H4H2892N (antibody, human IgG4, V domains shown, H4H prefix = human IgG4 Fc) VH: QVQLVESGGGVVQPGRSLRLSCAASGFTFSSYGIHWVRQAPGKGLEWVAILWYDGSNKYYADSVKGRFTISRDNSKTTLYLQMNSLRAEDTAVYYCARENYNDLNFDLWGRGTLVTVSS VL: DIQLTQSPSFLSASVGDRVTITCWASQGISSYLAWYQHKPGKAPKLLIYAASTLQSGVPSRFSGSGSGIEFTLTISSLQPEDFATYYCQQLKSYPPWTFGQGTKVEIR" reported_metric="Binding Signal with 300 sec Association" observed=0.49
binder="H4H6248P (antibody, human IgG4, V domains shown, H4H prefix = human IgG4 Fc) VH: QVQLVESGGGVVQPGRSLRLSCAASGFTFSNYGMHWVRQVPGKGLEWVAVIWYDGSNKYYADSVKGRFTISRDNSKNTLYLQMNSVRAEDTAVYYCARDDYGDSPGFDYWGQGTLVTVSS VL: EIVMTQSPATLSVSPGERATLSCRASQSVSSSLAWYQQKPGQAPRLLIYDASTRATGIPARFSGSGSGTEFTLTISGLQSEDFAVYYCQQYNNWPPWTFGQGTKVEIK" reported_metric="Binding Signal with 300 sec Association" observed=0.42

As a next step, examine the binder that follows.
Recorded Binding Signal with 300 sec Association (binder H4H6245P (antibody, human IgG4, V domains shown, H4H prefix = human IgG4 Fc) VH: EVQLVESGGGLVQPGGSLRLSCAASGFTFNSFWMSWVRQAPGKGLEWVANIKQDGSEKYYVDSVKGRFTISRDNAKNSVYLQMNSLRAEDTAVYYCARDLVTSFDYWGQGTLVTVSS VL: DIQMTQSPSSLSASVGDRVTITCQASQDINNYLNWYQQKPGKAPKLLIYDASYLETGVPSGFSGSGSGTDFTFTISSLQPEDIATYYCQQYDSLPYTFGQGTKLEIK ): 0.41

Recorded values, source patent US20200157194A1.
